target: Methionine--tRNA ligase, mitochondrial (Homo sapiens)
experiment: inhibitors of human mitochondrial MetRS, late-stage follow-up, selectivity assay for T. brucei MetRS inhibitor project, biochemical, radioactivity, round 1 (AID 743061;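 further: 0% = DMSO with full reaction and 100% = DMSO wells lacking tRNA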)
condition_parameters: recombinant human mtMetRS, [3H]Met tRNA charging, at 1 µM, stronger effect = higher value
Recorded inhibition by entry
The response must be a number in % with no trailing unit.

| compound | parameter_measured | result_value |
| --- | --- | --- |
| O=C(Cn1cnc2ccccc21)Nc1cccc([N+](=O)[O-])c1 | inhibition | -15.4 |
| COc1ccc(OCC(O)CNC(=O)Nc2ccc(Cl)cc2)cc1 (configuration not stated) | inhibition | -6.26 |
| Cc1cc2cc(C(=O)N3CCCC(c4nc5ccccc5[nH]4)C3)ccc2o1 (configuration not stated) | inhibition | -13.2 |
| O=C(Cn1cc(C(=O)C(=O)N2CCOCC2)c2ccccc21)Nc1cccc(C(F)(F)F)c1 | inhibition | -22.4 |
| C[C@H](O)[C@@H]1C(=O)N2CCc3c([nH]c4ccccc34)[C@@H]2C[C@@H]1N(C)Cc1ccc2c(c1)OCO2 | inhibition | -17.7 |

// inhibition value for O=C(NCc1nc2ccccc2[nH]1)C1=C[C@@H](c2csc3ccccc23)C[C@@H](OCCCCO)O1 : -15

// inhibition value for CCCCn1c(CCNC(=O)c2ccc(F)cc2)nc2ccccc21 : 3.64

// inhibition value for COc1ccc2[nH]c3nc(SCC(=O)Nc4ccc5c(c4)OCO5)nnc3c2c1 : 14.3

* * *

target: Methionine--tRNA ligase, mitochondrial (Homo sapiens) (UniProt Q96GW9)
experiment: inhibitors of human mitochondrial MetRS, late-stage follow-up, selectivity assay for T. brucei MetRS inhibitor project, biochemical, radioactivity, round 1 (AID 743061);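 further: 0% = DMSO with full reaction and 100% = DMSO wells lacking tRNA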
condition_parameters: recombinant human mtMetRS, [3H]Met tRNA charging, at 1 µM, stronger effect = higher value
Recorded inhibition by entry
The response must be a number in % with no trailing unit.

| molecule | unit_label | inhibition |
| --- | --- | --- |
| Cc1ccc(C(=O)NCCc2nc3ccccc3[nH]2)cc1[N+](=O)[O-] | % | 0.93 |

// inhibition value for Cc1ccc(NC(=O)CN(C)C(=O)CCSc2ccc(F)cc2)cc1 : -35.7

// inhibition value for Cc1cccc(NC(=O)C2CC(=O)n3c(nc4ccccc43)N2)c1 (centres undefined) : 10.7

// inhibition value for CCCCCCCCCC1NC(C(=O)O)Cc2c1[nH]c1ccccc21 (centres undefined) : -2.41

// inhibition value for COc1ccc(NC(=O)C2CC(=O)n3c(nc4ccccc43)N2)cc1 (centres undefined) : -2.67

// inhibition value for CC1Cc2ccccc2N1C(=O)Cn1cc(C(=O)C(=O)N2CCOCC2)c2ccccc21 (centres undefined) : -0.48

// inhibition value for O=C(CCC(=O)Nc1cccc([N+](=O)[O-])c1)NN=Cc1cccs1 : -28.9

// inhibition value for O=C(NCc1nc2ccccc2[nH]1)C1=C[C@@H](C2CC2)C[C@@H](OCc2ccc(CO)cc2)O1 : -11.4

// inhibition value for COc1ccccc1-n1c(SCC(=O)Nc2ccc(Cl)cc2)nc(O)c(Cc2ccccc2)c1=O : -31.6

// inhibition value for O=C(NCCc1nc2ccccc2[nH]1)c1ccc(Cl)c([N+](=O)[O-])c1 : 2.97

// inhibition value for COc1ccc(CNC(=O)CSc2nnc3c(n2)[nH]c2ccc(F)cc23)cc1 : -29.7

// inhibition value for COc1ccccc1NS(=O)(=O)c1cccc(NC(=O)Nc2ccccc2)c1 : -9.69

// inhibition value for CC(=O)c1c[nH]c(C(=O)NCc2cccc(C(F)(F)F)c2)c1 : -7.99

// inhibition value for O=C(NCc1nc2ccccc2[nH]1)C1=C[C@H](c2ccc(Br)cc2)C[C@H](OCCCCO)O1 : -6.37

// inhibition value for O=C(Cn1cc(C(=O)C(=O)N2CCCC2)c2ccccc21)Nc1ccccc1 : -7.71

// inhibition value for Clc1ccc(-c2nnc(SCc3nc4ccccc4[nH]3)o2)c(Cl)c1 : -3.17

// inhibition value for CN1CC(=O)N2C(c3cccc([N+](=O)[O-])c3)c3[nH]c4ccccc4c3C[C@H]2C1=O (some centres undefined) : -17.1

// inhibition value for CCc1ccc2[nH]c3nc(SCC(=O)NCc4cccc(OC)c4)nnc3c2c1 : -1.1

// inhibition value for O=C(NCCc1nc2ccccc2[nH]1)c1ccc(Cl)cc1Cl : 16.4
